Each recorded value in this set is attributed to the supplement of paper PMC7877785.

EXPERIMENT_NOTES: self-splicing fitness, log relative to wild type (ln ratio); higher = more splicing; Tetrahymena group I intron in knt gene, E. coli kanamycin selection, DiMSum; sequences stand for … in CUCUCU…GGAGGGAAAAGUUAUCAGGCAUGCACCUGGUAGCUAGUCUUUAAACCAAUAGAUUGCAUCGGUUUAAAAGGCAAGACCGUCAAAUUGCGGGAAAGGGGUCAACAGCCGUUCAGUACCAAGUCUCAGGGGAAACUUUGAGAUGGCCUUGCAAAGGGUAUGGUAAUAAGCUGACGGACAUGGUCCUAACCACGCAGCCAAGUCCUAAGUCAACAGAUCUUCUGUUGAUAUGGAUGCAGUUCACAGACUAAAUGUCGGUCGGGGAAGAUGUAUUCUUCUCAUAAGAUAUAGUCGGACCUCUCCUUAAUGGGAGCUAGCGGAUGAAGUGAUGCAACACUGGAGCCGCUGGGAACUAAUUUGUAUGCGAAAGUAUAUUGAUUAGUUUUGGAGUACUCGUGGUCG;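 also: selection with 25 µg/mL kanamycin versus none on LB agar overnight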
RUN_PARAMETERS: 37 °C
Range-based classes on measured self-splicing fitness (ln): lower segment: < -1; middle segment: ≥ -1 and < -0.3; upper segment: ≥ -0.3

• CACAAGCAAUAUUACGCACA = middle segment
• UUCAAGCAAUAUUACGGUGG = middle segment
• GUCUAGCAAUAUUACGACAC = upper segment
• GCGCAGCAAUAUUACGUACA = upper segment
• CCUGAGCAAUAUUACGUCUA = lower segment
• GUUAAGCAAUAUUACGACCA = lower segment
• GUAUAGCAAUAUUACGGACG = lower segment
• GCUUAGCAAUAUUACGUCAU = middle segment
• GUGAAGCAAUAUUACGUACG = upper segment
• UGCCAGCAAUAUUACGCACG = upper segment
• GAUCAGCAAUAUUACGCACG = upper segment
• UGGCAGCAAUAUUACGGGUA = upper segment
• GGUAAGCAAUAUUACGUCAA = lower segment
• AAUAAGCAAUAUUACGUAAU = middle segment
• CGAGAGCAAUAUUACGGGUG = lower segment
• CGCAAGCAAUAUUACGAGUG = lower segment

----------
Listed below: self-splicing fitness (ln) values for each entry.
EXPERIMENT_NOTES: self-splicing fitness, log relative to wild type (ln ratio); higher = more splicing; Tetrahymena group I intron in knt gene, E. coli kanamycin selection, DiMSum; sequences stand for … in CUCUCU…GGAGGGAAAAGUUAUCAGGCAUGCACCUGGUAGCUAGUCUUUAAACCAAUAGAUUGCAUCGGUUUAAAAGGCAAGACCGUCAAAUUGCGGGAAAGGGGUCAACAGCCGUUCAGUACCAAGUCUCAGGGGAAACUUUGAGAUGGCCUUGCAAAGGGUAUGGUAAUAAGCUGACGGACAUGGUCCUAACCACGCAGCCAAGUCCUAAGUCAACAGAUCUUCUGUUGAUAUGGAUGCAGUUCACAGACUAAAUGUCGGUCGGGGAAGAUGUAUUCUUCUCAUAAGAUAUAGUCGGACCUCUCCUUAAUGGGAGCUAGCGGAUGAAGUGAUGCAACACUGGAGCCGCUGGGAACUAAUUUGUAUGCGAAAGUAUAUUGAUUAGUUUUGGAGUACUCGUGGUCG
RUN_PARAMETERS: 37 °C
MEASUREMENT_LABEL: self-splicing fitness (ln)

• GUGGAGCAAUAUUACGCCUA = -1.96
• UCUUAGCAAUAUUACGUAUG = -0.892
• CACUAGCAAUAUUACGCGGA = -1.85
• GUAGAGCAAUAUUACGAGGG = -2.38
• UAUCAGCAAUAUUACGAGGG = -1.61
• GAUUAGCAAUAUUACGUGAC = -0.588
• GUAAAGCAAUAUUACGCCGU = 0.561
• CCGUAGCAAUAUUACGCUAA = -1.35
• AACAAGCAAUAUUACGCUGU = -2.32
• UCGGAGCAAUAUUACGAAUA = -1.27
• CCCAAGCAAUAUUACGUCCU = -2.93
• GACUAGCAAUAUUACGUCAA = -2
• CCCCAGCAAUAUUACGCUUC = -2.39
• ACCUAGCAAUAUUACGAGCG = -0.509
• GACUAGCAAUAUUACGUAUA = -0.555
• UACAAGCAAUAUUACGCUCC = -0.668
